target: UniProtKB P08183; assay: Rhodamine 123 intracellular accumulation assay in K562/Dox (flow cytometry); details: Rho123, K562/Dox, 25 µM
Sequence (P08183 whole entry): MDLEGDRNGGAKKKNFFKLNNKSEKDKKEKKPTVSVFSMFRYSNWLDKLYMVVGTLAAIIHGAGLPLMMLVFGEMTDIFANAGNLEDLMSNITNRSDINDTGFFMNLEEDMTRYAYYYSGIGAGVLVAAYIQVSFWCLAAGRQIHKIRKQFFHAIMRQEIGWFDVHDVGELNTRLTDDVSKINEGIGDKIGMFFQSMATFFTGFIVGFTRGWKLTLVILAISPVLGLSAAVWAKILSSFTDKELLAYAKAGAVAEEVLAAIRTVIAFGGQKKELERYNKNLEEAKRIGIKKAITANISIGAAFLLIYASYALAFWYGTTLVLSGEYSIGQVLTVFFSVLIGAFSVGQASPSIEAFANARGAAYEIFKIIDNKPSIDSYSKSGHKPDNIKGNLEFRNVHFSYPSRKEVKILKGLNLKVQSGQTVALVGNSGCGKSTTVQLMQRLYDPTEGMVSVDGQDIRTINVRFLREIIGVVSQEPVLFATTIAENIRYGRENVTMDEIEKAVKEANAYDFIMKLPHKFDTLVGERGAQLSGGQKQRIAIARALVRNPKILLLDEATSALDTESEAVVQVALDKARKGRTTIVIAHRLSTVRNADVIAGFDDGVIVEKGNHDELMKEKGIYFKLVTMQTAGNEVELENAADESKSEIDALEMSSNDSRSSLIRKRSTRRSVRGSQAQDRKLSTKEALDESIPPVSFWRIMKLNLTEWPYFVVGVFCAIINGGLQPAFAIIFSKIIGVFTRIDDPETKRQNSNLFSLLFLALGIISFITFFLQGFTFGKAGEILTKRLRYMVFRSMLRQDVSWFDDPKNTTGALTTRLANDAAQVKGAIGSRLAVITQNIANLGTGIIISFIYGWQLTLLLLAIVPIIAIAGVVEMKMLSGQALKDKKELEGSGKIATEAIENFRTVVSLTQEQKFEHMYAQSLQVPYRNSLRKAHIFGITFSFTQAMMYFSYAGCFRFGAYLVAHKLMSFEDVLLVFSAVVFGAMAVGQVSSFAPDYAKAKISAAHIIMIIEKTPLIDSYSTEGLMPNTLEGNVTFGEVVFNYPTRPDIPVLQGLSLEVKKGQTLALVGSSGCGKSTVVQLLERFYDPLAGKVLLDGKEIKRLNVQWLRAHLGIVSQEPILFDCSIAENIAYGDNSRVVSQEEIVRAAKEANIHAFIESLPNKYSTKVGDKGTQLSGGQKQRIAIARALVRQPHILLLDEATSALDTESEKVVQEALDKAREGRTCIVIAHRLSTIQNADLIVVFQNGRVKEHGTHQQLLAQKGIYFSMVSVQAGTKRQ
Label t for high-side FAR (fluorescence activity ratio) (at or above 2) and f for low-side FAR (fluorescence activity ratio) (below it).

| item-smiles | category |
| --- | --- |
| C=C(C)[C@@H]1CC[C@]2(COC(=O)NCc3ccc(OC)c(OC)c3)CC[C@]3(C)[C@H](CC[C@@H]4[C@@]5(C)CC[C@H](O)C(C)(C)[C@@H]5CC[C@]43C)[C@@H]12 | f |
| C=C(C)[C@@H]1CC[C@]2(CO)CC[C@]3(C)[C@H](CC[C@@H]4[C@@]5(C)CC[C@H](O)C(C)(C)[C@@H]5CC[C@]43C)[C@@H]12 | t |
| C=C(C)[C@@H]1CC[C@]2(COC(=O)NCCc3ccc(OC)cc3)CC[C@]3(C)[C@H](CC[C@@H]4[C@@]5(C)CC[C@H](O)C(C)(C)[C@@H]5CC[C@]43C)[C@@H]12 | f |
| C=C(C)[C@@H]1CC[C@]2(COC(=O)NCc3ccc(OC)cc3)CC[C@]3(C)[C@H](CC[C@@H]4[C@@]5(C)CC[C@H](O)C(C)(C)[C@@H]5CC[C@]43C)[C@@H]12 | f |

[ask] In plain terms: is recorded FAR (fluorescence activity ratio) at least 2 for C=C(C)[C@@H]1CC[C@]2(COC(=O)c3cc(OC)c(OC)c(OC)c3)CC[C@]3(C)[C@H](CC[C@@H]4[C@@]5(C)CC[C@H](O)C(C)(C)[C@@H]5CC[C@]43C)[C@@H]12 ?
[reply] f

[ask] Given C=C(C)[C@@H]1CC[C@]2(COC(=O)N3CCc4cc(OC)c(OC)cc4C3)CC[C@]3(C)[C@H](CC[C@@H]4[C@@]5(C)CC[C@H](O)C(C)(C)[C@@H]5CC[C@]43C)[C@@H]12 , state whether its FAR (fluorescence activity ratio) is at least 2.
[reply] f
